assay: folding stability dG unfold (combined trypsin and chymotrypsin); higher = more stable
reportedEndpoint: folding stability dG unfold (kcal/mol)
Give your result in kcal/mol as a bare value.

Consider the sequence shown here: SAGGIKELAKKGYEIKEVTVRVRNKDGSVYEITEIKVVDGELYIKVKNKKTGKIEEKKIPLKDIEIVPSAGG [r13_340_TrROS_Hall] What is its recorded folding stability dG unfold?
1.83

Consider the sequence shown here: SAGGSAMIEIKVEVNGKTYRITIEKNEDGTLTLTVYDEKTGKKTEIEIPLENLEELKKLNVKRIEISAGGSA [r15_629_TrROS_Hall] What is its recorded folding stability dG unfold?
3.09

Consider the sequence shown here: SAGGSAGGSAGGAVGPDVGLPDAPVRFRNPSDDKVFTAYVPAGANFADLAKKYGVEIEPSAGGSAGGSAGGS [r10_202_TrMRF] What is its recorded folding stability dG unfold?
0.167

---

assay: folding stability dG unfold (combined trypsin and chymotrypsin); higher = more stable
Returns the class for an entry based on its folding stability dG unfold. Class ranges: band A: < 0.9 kcal/mol; band B: ≥ 0.9 kcal/mol and < 2 kcal/mol; band C: ≥ 2 kcal/mol

Record excerpt, results attached:
SAGGGGSTPVSSYSYPLPDGSTATITISSKNPDSDIYSFTVTLSDGTTVPLDVPLSESVEEAIARVLTSAGG [r13_470_JUSTAS] ... band C
SAGGGSTTTRTIGSKDGTVATVTVTTDPATGTTTVTISSPSPEVLEEVAAQLGLPVREVLPDGTVVLASAGG [r13_937_JUSTAS] ... band B
SAGGSAGGSAEPVRLVVVTPGFPDGPPIPVEELEALLEAEDVTVVDPFTIPELGYVVLLVEASAGGSAGGSA [r18_466_TrMRF] ... band B

Band of SAGPPVEIPITIKIRYWKPDPDGPKPVEERTIPIPVRMPPDQLDDPAFNNFIKEALDELPPGIRMIEITSAG [r5_849_TrROS] ?
band B

Band of SAGGPNVPIRIRVTIERQDPDGEPKDFEFPIEYPMPPDDPEQAKEQIEELAESIAEKHGYKVEIEIEPSAGG [r13_853_TrROS] ?
band A

Band of SAGGEKATVTVVYDPEKGYVVVPVDIPFLDENGKPKKLKLVFVLPASPEAEEAVKELAKELGLESVESAGGS [r8_381_TrMRF] ?
band C

---

assay: folding stability dG unfold (combined trypsin and chymotrypsin); higher = more stable
# if value of folding stability dG unfold reaches 2 kcal/mol, tag true; if it stays below, tag false

Record excerpt, results attached:
SAGGSMKPAKKITFTFPDGRKAEIFFYPEEDTIELRIYFPETGTFVEIPVKSPEDLIETLKKLLAESAGGSA [r2_70_TrMRF] ... true
SAGMEATIEIVGHPGDKEAIAVLRPEDKTVVIYKNKDGSYTVEVFEPNPARLIERKELPLEEAIKEALSAGG [r19_188_TrMRF] ... false
STKLLPFEEALKEAEKAIKEGKKKVNITIYTPDGKTFNLTDVEKVKEFIEKEFPGISLSELTVTVSITPPES [r1_325_JUSTAS] ... true
SAGGMKKRVEIPEELKKAYPDLVVEDQEVPEDSVDVTVRLPTADLKVPQVVLSPDGNPLRSFTLTSSPSAGG [r13_129_JUSTAS] ... false
SAGGSAGGSAGGMTITVVTEESPGPFKTVTVTTTTPLPNGTLATTTTTTFLPVSPDEPVSAGGSAGGSAGGS [r10_241_JUSTAS] ... false

Pending sequence:
Test whether the sequence SAGGVLPSDPVTVTVTIPVPAANAETDGRLPPQPQTINLEIGGPSEEAIRALLEALFPPGTEYEILLSAGGS [r16_282_JUSTAS] records folding stability dG unfold of 2 kcal/mol or higher.
false

---

assay: folding stability dG unfold (combined trypsin and chymotrypsin); higher = more stable
reportedEndpoint: folding stability dG unfold (kcal/mol)
Give your result in kcal/mol as a bare value.

SAGGSAGGSAGGSMVVEYDPETGVRTTTVALPSDSVEVTTEKIDPATGEVVETVTELAASAGGSAGGSAGGS [r4_415_JUSTAS] ... 0.358

Consider the sequence shown here: SAGDSVVIPFRLPPENLSPEELLEWIIDEVKEAAKAGLPHKVTIQVPYPGKPWYITIDPKNGEIEIVPSAGG [r19_204_TrROS] What is its recorded folding stability dG unfold?
1.52

Consider the sequence shown here: SAGGSAEVYKVKIKIERVLPNGEKVEEEITIEVEGMSEEELLALARELAAEPGVRIKEIEIEKLPPSAGGSA [r15_550_TrROS_Hall] What is its recorded folding stability dG unfold?
4.65

Consider the sequence shown here: SAGGSAGGSDFPVKILEVEFHPNGSITIVIQAPDGWYIKATFHVPPNGNVKMSIELIPDPDAISAGGSAGGS [r20_23_TrROS] What is its recorded folding stability dG unfold?
3.85

Consider the sequence shown here: SAGGSAGGSAPLIELRPPEEPLFLPLENLLGRGIPLEELAKLLEKLTGRKVEPVKPGYIRTGSAGGSAGGSA [r18_7_TrMRF] What is its recorded folding stability dG unfold?
-0.161

---

assay: folding stability dG unfold from trypsin proteolysis; higher = more stable
reportedEndpoint: folding stability dG unfold (kcal/mol)
Give your result in kcal/mol as a bare value.

// solved cases for folding stability dG unfold follow
SAGGSAGGSGSMSTPVTEEITLTLTRTTEDGTEVVITIKVKVVKDPTSDVVTVTEVLSETVEPSAGGSAGGS [r12_358_JUSTAS] ... 2.18
SAGGSAGGSAGGSTITLRIEGLSKEEIEELARKLGAKVVSFDEKNKTVTIELPPGAKLLSAGGSAGGSAGGS [r4_3_TrROS_Hall] ... 1.88
SAGGSTIENPNGWRIEIDIIPIKVVYRKDPNGKPKEPVAPPVWIIHIKIEFPDKNGEKKEATFMLFSAGGSA [r2_218_TrROS] ... 2.62

Consider the sequence shown here: SAGGSAGGSAGGSSDIVVTSETLPGPTRLVRITIPEKGETIELTLPASESIEQAVALLLSAGGSAGGSAGGS [r4_393_JUSTAS] What is its recorded folding stability dG unfold?
0.253

Consider the sequence shown here: SAGGSAGGSAILVPSPETAKKIMDELRKKTGAKVKMKPIGTGADGKEYYRIEVVPPDKPLDSAGGSAGGSAG [r3_59_TrMRF] What is its recorded folding stability dG unfold?
0.029

Consider the sequence shown here: SAGGMPDITEVELLDVEYDPETGTYRFRVKVKLKDGTEREVEIPFVDEDGDFGIEEILKAAEELVEESAGGS [r16_221_TrMRF] What is its recorded folding stability dG unfold?
2.71

Consider the sequence shown here: SAGGSAGGPKEYYRVTVYVRNKDGEWEKVAEIEVPGMTEEELKELLAKLGLPPGAEVEIKIEKVSAGGSAGG [r6_88_TrROS_Hall] What is its recorded folding stability dG unfold?
5.02

---

# folding stability dG unfold values compiled below
assay: folding stability dG unfold (combined trypsin and chymotrypsin); higher = more stable
Give your result in kcal/mol as a bare value.

SAGGSWRVSVQFPDGKKIKIPEEPIQKIIQEYGIPPDPGDPERMVERIANRIADKYGYPVKNIEIDSAGGSA [r2_83_TrROS] ... 0.0663
SAGKKKKVVITIKVEKSEEEVKELVKKLAEEAKKKGKEVVIKIEVDGKTYEFTLEDIKKLPPNAKVTLLSAG [r5_626_TrROS_Hall] ... 1.58

Consider the sequence shown here: SAMRAAVLAAAEEITAHPEFEAVGISPDGTFLFRNPATGKVYRIRLEAEDDGEGVIVRVPSIEPLDAPDSAG [r14_20_TrMRF] What is its recorded folding stability dG unfold?
1.75

Consider the sequence shown here: SAGGSAGGSAGMKVVVTLPDRTVTIPVNGTLDEAKEAVIKRAEELFGKPIPIEEITMSGESAGGSAGGSAGG [r11_1028_JUSTAS] What is its recorded folding stability dG unfold?
0.408

Consider the sequence shown here: SAGGSAGGSAGGKVTIEFPTSRVELYPLPGPFVLAEVSFPNRKLLALAHPDGDEILILPISAGGSAGGSAGG [r7_683_TrMRF] What is its recorded folding stability dG unfold?
1.07

Consider the sequence shown here: SAGGSIPPGARVETLEVVTSSSSDGTVTTTTLTRVTSPEDSVSERTRTTTDPVVPPPATPTNPVSLASAGGS [r8_90_JUSTAS] What is its recorded folding stability dG unfold?
0.507

Consider the sequence shown here: SAIVLVVADDSPEEAVERARRFAATLRERLVREGYPDADVPIVVEVRAVPPPVPVPVRLPDGDEVVPAPSAG [r14_475_TrMRF] What is its recorded folding stability dG unfold?
1.32

Consider the sequence shown here: SMTTTTLPDGTTVTTLSDGTVKTVTHYPDSVVTETSPITYKLPDGREFTTKEEAEAYEKETGIPVSPALASA [r9_660_JUSTAS] What is its recorded folding stability dG unfold?
0.4

Consider the sequence shown here: SAGGSAGGSAGGSAGRLVKETKTTSYIFTFKKPTGEPISKKTSFVTSSLILLSDPSKISSAGGSAGGSAGGS [r4_450_JUSTAS] What is its recorded folding stability dG unfold?
4.6

Consider the sequence shown here: PDNEPPQWYRVWIPIDPEDGKIEVKPGGSTMTIDLPDGRPIEFYVPQGMSPSDIKNWAKGIAKELAEELKNS [r1_25_TrROS] What is its recorded folding stability dG unfold?
1.52

Consider the sequence shown here: SAGKKKKFKIVSVEVEVKEVNGKLVIKMKVKDKKTGKTYEITMTLKVVDKKTKKTYTKTLKVTIKLPKSAGG [r19_129_TrROS_Hall] What is its recorded folding stability dG unfold?
4.04

Consider the sequence shown here: SAGGATIEIKELGRDEDTWYFLVTDPGSAEAVKDFIEKFIPPDYDAKIKILSVDPETGKVTALIEIPGSAGG [r13_491_TrMRF] What is its recorded folding stability dG unfold?
2.64

Consider the sequence shown here: SKKKVTIEIEIVVRVPEGDELKNMTAEELAALLAEELGVEVEIVEVELVEYDEETGEYYVRIKVKITFPESA [r9_107_TrROS_Hall] What is its recorded folding stability dG unfold?
2.76

Consider the sequence shown here: SAGGSKWIPVSIWFPKGMTPEKVEEIARELVEAGYRIENIEVEREPDPNGREWYRVDITFRPPGDLSAGGSA [r2_442_TrROS] What is its recorded folding stability dG unfold?
2.83
